# Experimental System: T1, IL10Rα and IL2Rγ on human primary cells (CD8 T cells, CD4 T cells, monocytes) (human) (UniProt Q13651)
# T1 sequence (looked up) 1: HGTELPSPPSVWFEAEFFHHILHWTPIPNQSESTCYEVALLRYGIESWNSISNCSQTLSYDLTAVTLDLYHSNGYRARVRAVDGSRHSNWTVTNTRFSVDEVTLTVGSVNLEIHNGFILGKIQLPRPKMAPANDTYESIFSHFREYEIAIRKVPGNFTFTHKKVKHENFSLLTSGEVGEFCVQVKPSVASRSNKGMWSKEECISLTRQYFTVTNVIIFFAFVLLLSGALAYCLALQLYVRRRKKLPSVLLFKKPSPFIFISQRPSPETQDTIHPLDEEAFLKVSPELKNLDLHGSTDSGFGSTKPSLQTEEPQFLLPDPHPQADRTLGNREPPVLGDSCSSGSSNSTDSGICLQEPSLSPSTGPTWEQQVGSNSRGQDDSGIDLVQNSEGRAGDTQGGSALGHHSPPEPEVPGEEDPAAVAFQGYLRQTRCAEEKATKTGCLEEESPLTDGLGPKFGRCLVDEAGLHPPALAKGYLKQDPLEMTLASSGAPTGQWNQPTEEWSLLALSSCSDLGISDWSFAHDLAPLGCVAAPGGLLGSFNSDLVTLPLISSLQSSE
# T1 sequence (looked up) 2: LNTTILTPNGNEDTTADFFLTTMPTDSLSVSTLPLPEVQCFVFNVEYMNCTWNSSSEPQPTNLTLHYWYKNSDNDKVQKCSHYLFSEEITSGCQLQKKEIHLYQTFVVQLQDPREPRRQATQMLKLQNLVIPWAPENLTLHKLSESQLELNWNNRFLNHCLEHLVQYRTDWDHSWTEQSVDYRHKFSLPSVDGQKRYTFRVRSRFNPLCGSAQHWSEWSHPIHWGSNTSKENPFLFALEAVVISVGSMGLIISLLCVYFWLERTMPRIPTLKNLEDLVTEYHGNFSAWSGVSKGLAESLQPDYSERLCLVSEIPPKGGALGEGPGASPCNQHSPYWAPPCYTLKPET
# Procedure Details: cell-based or functional assay
Catalogue of pSTAT3 (MFI) in monocytes at 10 µM values

Binder	pSTAT3 (MFI) in monocytes at 10 µM
hIL10Ra_VHH14-hIL2Rg_VHH19, linker GGGS, tag his (bispecific antibody, not shown: small tags and cut ends) QVQLQESGGGSVQAGGSLRLSCGASGYTYSSYCMGWFRQVPGKEREGVAVIDSDGSTSYADSVKGRFTISKDNGKNTLYLQMNSLKPEDTAMYYCAADLGHYRPPCGVLYLGMDYWGKGTQVTVSSGGGSQVQLQESGGGSVQAGGSLRLSCTASGFTFDDREMNWYRQAPGNECELVSTISSDGSTYYADSVKGRFTISQDNAKNTVYLQMDSVKPEDTAVYYCAADFMIAIQAPGAGCWGQGTQVTVSS	4840 MFI
hIL10Ra_VHH14-hIL2Rg_VHH19, linker GGGS, tag Fc (Fc fusion, not shown: a dimerising Fc or GST) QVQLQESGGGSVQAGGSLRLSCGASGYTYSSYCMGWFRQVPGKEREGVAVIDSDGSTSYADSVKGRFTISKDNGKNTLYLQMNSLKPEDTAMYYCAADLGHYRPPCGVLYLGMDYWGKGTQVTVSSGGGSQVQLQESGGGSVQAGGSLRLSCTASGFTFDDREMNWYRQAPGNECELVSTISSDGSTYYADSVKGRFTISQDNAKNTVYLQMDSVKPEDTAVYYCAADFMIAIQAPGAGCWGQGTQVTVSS	6690 MFI
hIL10Ra_VHH14-hIL2Rg_VHH19, linker …, tag his (bispecific antibody, not shown: small tags and cut ends) QVQLQESGGGSVQAGGSLRLSCGASGYTYSSYCMGWFRQVPGKEREGVAVIDSDGSTSYADSVKGRFTISKDNGKNTLYLQMNSLKPEDTAMYYCAADLGHYRPPCGVLYLGMDYWGKGTQVTVSSGGSGGSGGSGQVQLQESGGGSVQAGGSLRLSCTASGFTFDDREMNWYRQAPGNECELVSTISSDGSTYYADSVKGRFTISQDNAKNTVYLQMDSVKPEDTAVYYCAADFMIAIQAPGAGCWGQGTQVTVSS	4550 MFI
hIL10Ra_VHH14-hIL2Rg_VHH19, linker GGSGGS, tag his (bispecific antibody, not shown: small tags and cut ends) QVQLQESGGGSVQAGGSLRLSCGASGYTYSSYCMGWFRQVPGKEREGVAVIDSDGSTSYADSVKGRFTISKDNGKNTLYLQMNSLKPEDTAMYYCAADLGHYRPPCGVLYLGMDYWGKGTQVTVSSGGSGGSQVQLQESGGGSVQAGGSLRLSCTASGFTFDDREMNWYRQAPGNECELVSTISSDGSTYYADSVKGRFTISQDNAKNTVYLQMDSVKPEDTAVYYCAADFMIAIQAPGAGCWGQGTQVTVSS	4890 MFI
hIL10Ra_VHH14-hIL2Rg_VHH19, linker GGGSGGGS, tag his (bispecific antibody, not shown: small tags and cut ends) QVQLQESGGGSVQAGGSLRLSCGASGYTYSSYCMGWFRQVPGKEREGVAVIDSDGSTSYADSVKGRFTISKDNGKNTLYLQMNSLKPEDTAMYYCAADLGHYRPPCGVLYLGMDYWGKGTQVTVSSGGGSGGGSQVQLQESGGGSVQAGGSLRLSCTASGFTFDDREMNWYRQAPGNECELVSTISSDGSTYYADSVKGRFTISQDNAKNTVYLQMDSVKPEDTAVYYCAADFMIAIQAPGAGCWGQGTQVTVSS	4880 MFI
hIL10Ra_VHH14-hIL2Rg_VHH19, no linker, tag his (bispecific antibody, not shown: small tags and cut ends) QVQLQESGGGSVQAGGSLRLSCGASGYTYSSYCMGWFRQVPGKEREGVAVIDSDGSTSYADSVKGRFTISKDNGKNTLYLQMNSLKPEDTAMYYCAADLGHYRPPCGVLYLGMDYWGKGTQVTVSSQVQLQESGGGSVQAGGSLRLSCTASGFTFDDREMNWYRQAPGNECELVSTISSDGSTYYADSVKGRFTISQDNAKNTVYLQMDSVKPEDTAVYYCAADFMIAIQAPGAGCWGQGTQVTVSS	4330 MFI
hIL10Ra_VHH14-hIL2Rg_VHH19, linker GS, tag his (bispecific antibody, not shown: small tags and cut ends) QVQLQESGGGSVQAGGSLRLSCGASGYTYSSYCMGWFRQVPGKEREGVAVIDSDGSTSYADSVKGRFTISKDNGKNTLYLQMNSLKPEDTAMYYCAADLGHYRPPCGVLYLGMDYWGKGTQVTVSSGSQVQLQESGGGSVQAGGSLRLSCTASGFTFDDREMNWYRQAPGNECELVSTISSDGSTYYADSVKGRFTISQDNAKNTVYLQMDSVKPEDTAVYYCAADFMIAIQAPGAGCWGQGTQVTVSS	4930 MFI
